METHOD DESCRIPTION: Multicenter, open-label, Phase 1a/b study of HC-7366 in subjects with advanced solid tumors (safety, PK)
Assay type: in vivo
ASSAY SETUP: human, plasma, po, 40 mg, human, multiple once daily oral 40 mg (N = 8), Cycle 1 Day 21, geometric mean
RECORDED ENDPOINT: half-life (h)
Answer in h, number only, no unit symbol.

Which half-life value belongs to CNC(=O)c1ncn2cc(-c3c(F)ccc(NS(=O)(=O)c4cc(Cl)cnc4OC)c3F)ncc12 ?
12.4

---

METHOD DESCRIPTION: Pharmacokinetics of HC-7366 in male and female beagle dogs following IV and oral administration of HC-7366-K (plasma and urine, LC-MS/MS)
Format: in vivo, Beagle Dog
ASSAY SETUP: Female Beagle dog, PO 50 mg/kg, t = 48 h, plasma, mean n = 3
RECORDED ENDPOINT: AUC(0-t) (µg·h/mL)
Write down the numeric answer in µg·h/mL and omit the unit.

Quick check: AUC(0-t) of CNC(=O)c1ncn2cc(-c3c(F)ccc(NS(=O)(=O)c4cc(Cl)cnc4OC)c3F)ncc12 ?
4880
